Test: Toxicity liver stage against HepG2, at 10uM
Type: cell-based
Parameters: test concentration 10 uM, cell line HepG2-A16-CD81EGFP
Conditions: human, HepG2-A16-CD81EGFP cells; read-out: INHIBITION
Parameter: cytotoxicity at 10 µM. Scope: all listed entries.
reported_endpoint: cytotoxicity at 10 µM (%)

compound="CCOCCN1Cc2cnn(C)c2C(COCC)C1 (stereo not given)" measured_number=-62.6
compound=CCOc1ncnc2c1CCN(S(=O)(=O)C1CC1)CC2 measured_number=3.42
compound=NC(=O)c1ccn(COc2ccccc2Cl)n1 measured_number=2.96
compound=Cn1nc(COc2cccnc2)c2c1CCN(Cc1ccco1)C2 measured_number=-5.57
compound="Cc1nc(CN2CCCC(N(C)Cc3c(C)noc3C)C2)no1 (stereo not given)" measured_number=-0.866
compound="CCOC(=O)NC(CNC(=O)CCc1ccccn1)CC(C)C (stereo not given)" measured_number=-4.61
compound=O=S(=O)(C1CC1)N1CC[C@H](OCC2CC2)[C@@H]1Cc1ccncc1 measured_number=7.67
compound="O=C(NCCc1c[nH]cn1)C1CCCN(Cc2ccco2)C1 (stereo not given)" measured_number=-0.123
compound=CCn1nc(C)cc1C(=O)NCc1nc(C)no1 measured_number=0.304
compound=Cc1ccc(F)c(OC2(C(=O)O)CCN(C(=O)c3ccncc3)CC2)c1 measured_number=5.03
compound="COc1cccc(CN2CCC(c3nn(CCN)c4nccnc34)C2)c1 (stereo not given)" measured_number=-24.7
compound="CCN1CC(C(=O)N(C)Cc2ccon2)CC1=O (stereo not given)" measured_number=7.08
compound="CC(NC(=O)CNCCn1cccn1)c1ccc2c(c1)OCCO2 (stereo not given)" measured_number=-13
compound=O=C(NCCCn1cccn1)c1csc2c1CCCC2 measured_number=-10.2
compound="Cc1ccc2c(c1)C(NCc1ncnn1C)CC2 (stereo not given)" measured_number=6.32
compound="N#Cc1c(F)cccc1N1CCCC(C(=O)Nc2nncs2)C1 (stereo not given)" measured_number=4.48
compound=O=C(Nc1cccnc1)C1=NN(c2ccccc2)C(=O)CN1 measured_number=-7.12
compound="O=C(NCC1(O)COCCN(Cc2cccc(O)c2)C1)c1cscn1 (stereo not given)" measured_number=-2.28
compound=Clc1cncc(NCc2cccc(OCCN3CCOCC3)c2)n1 measured_number=9.71
compound=O=C1CCCN1CCc1nc(-c2ccsc2)no1 measured_number=-1.22
compound="COc1ncccc1C(=O)Nc1cccc(C[S+](C)[O-])c1C (stereo not given)" measured_number=2.28
compound=CS(=O)(=O)CC(=O)N1C[C@H]2CCC[C@@]2(COc2ccccn2)C1 measured_number=-99.2
compound=CC(C)(C)c1noc(CN2CCCN(Cc3cccs3)CC2)n1 measured_number=-8.8
compound=CC(C)Oc1cccc(CN2CCC(c3n[nH]c4ncccc34)CC2)c1 measured_number=-6.15
compound="Cc1cccc(NC(=O)NC2CCC3(C2)OCCO3)c1Cl (stereo not given)" measured_number=10.6

###

Experiment: Toxicity liver stage against HepG2, at 10uM
Assay type: cell-based
Set-up: test concentration 10 uM, cell line HepG2-A16-CD81EGFP
Settings: human, HepG2-A16-CD81EGFP cells; read-out: INHIBITION
Parameter: cytotoxicity at 10 µM. Scope: all listed entries.
reported_endpoint: cytotoxicity at 10 µM

molecule=CCn1cc(NC(=O)CN2CCC(Oc3ccccc3C)CC2)c(C)n1 result=0.343%
molecule=O=C(NCC1(O)CCCC1)c1ccc2nsnc2c1 result=-5.37%
molecule="CCOCc1cnc2n1CCN(C(=O)c1ccoc1C)C2C (centres undefined)" result=-98.3%
molecule=O=C(NCCc1ccco1)Nc1cc(C(F)(F)F)c[nH]c1=O result=-12.3%
molecule=O=C1COC2(CCN(Cc3cccs3)CC2)CN1c1ccsc1 result=-125%
molecule="Cn1ncc2c(=O)[nH]c(CN3CCCC3c3ccccc3Cl)nc21 (centres undefined)" result=-4.8%
molecule="CNc1cc(C2CN(C(=O)c3cnn(C)c3)CCO2)nc(C)n1 (centres undefined)" result=-5.42%
molecule=CCc1ncc2c(n1)CN(C(=O)CNC(=O)C(C)C)C2 result=7.28%
molecule=CS(=O)(=O)c1ccc(CNC[C@H]2COCc3nc4cccnc4n32)cc1 result=-0.505%
molecule=CN(C)C(=O)c1nc2c(s1)CCCN2Cc1ccccc1 result=7.58%
molecule="Cc1nn(C)c(C)c1CC(=O)N1CCCC(n2cccn2)C1 (centres undefined)" result=-13.7%
molecule=COc1ccc(-n2cnnc2SCC(=O)N(C)C(C)C)cn1 result=16.7%
molecule="CC(C)Cc1cc(CNC(=O)C2CCCN(C(=O)N(C)C)C2)no1 (centres undefined)" result=2.31%
molecule=CCCc1nnc(NC2CCN(Cc3ccc(F)c(F)c3)CC2)o1 result=-1.48%
molecule="CN(Cc1ccc(F)cc1)CC1(O)CCN(C(=O)c2ccncc2)C1 (centres undefined)" result=-2.25%
molecule="O=C1NCCN1CCNCC1(O)CCCN(CCC2CCCCC2)C1=O (centres undefined)" result=-1.04%
molecule=CCNC(=O)c1ccc2c(c1)nc1n2CCN(Cc2ccco2)C1 result=-5.64%
molecule=CCCN(C)C(=O)Nc1ccc(C(=O)NCCC(=O)OC)cc1 result=6.62%
molecule="COCCC(Cc1cccc(Br)c1)C(=O)NCC(N)=O (centres undefined)" result=9.74%
molecule="Cc1nc(C)n(C2CCCN(C(=O)Cc3n[nH]c4ccccc34)C2)n1 (centres undefined)" result=-11.7%
molecule=Cc1nn(-c2ccccn2)c(C)c1[C@@H]1C=C[C@@H](NC(=O)NC(C)C)C1 result=1.52%
molecule=O=C(c1cccnc1)N1CCn2nnc(COc3ccccn3)c2C1 result=-76.2%
molecule="Cc1nc(N2CCC(C(O)c3nccn3C)CC2)c2cccnc2n1 (centres undefined)" result=1.46%
molecule="CC(Cn1cccn1)NCc1nc(-c2ccccc2Cl)no1 (centres undefined)" result=-3.56%

Every entry's value here was drawn from ChEMBL document CHEMBL4513216.
